Source of measurements: patent US20230322846A9

Molecular target: human GABAA receptors composed of the α1β2γ2 subunits (Homo sapiens (Human), UniProt P14867+P18507+P47870)
Sequence (P14867 28-456 limits assumed): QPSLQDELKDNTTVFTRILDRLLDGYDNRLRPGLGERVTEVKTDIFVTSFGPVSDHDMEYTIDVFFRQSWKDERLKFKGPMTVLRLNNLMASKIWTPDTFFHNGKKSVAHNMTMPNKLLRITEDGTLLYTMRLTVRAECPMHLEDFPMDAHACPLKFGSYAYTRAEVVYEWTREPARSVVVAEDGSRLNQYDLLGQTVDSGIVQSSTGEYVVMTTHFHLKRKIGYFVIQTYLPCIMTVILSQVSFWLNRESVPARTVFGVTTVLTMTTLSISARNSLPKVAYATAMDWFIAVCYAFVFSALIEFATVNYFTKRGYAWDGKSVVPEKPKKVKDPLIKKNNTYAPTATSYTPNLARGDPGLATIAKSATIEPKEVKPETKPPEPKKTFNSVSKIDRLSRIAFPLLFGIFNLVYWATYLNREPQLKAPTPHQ
Sequence (P47870 25-512 limits assumed): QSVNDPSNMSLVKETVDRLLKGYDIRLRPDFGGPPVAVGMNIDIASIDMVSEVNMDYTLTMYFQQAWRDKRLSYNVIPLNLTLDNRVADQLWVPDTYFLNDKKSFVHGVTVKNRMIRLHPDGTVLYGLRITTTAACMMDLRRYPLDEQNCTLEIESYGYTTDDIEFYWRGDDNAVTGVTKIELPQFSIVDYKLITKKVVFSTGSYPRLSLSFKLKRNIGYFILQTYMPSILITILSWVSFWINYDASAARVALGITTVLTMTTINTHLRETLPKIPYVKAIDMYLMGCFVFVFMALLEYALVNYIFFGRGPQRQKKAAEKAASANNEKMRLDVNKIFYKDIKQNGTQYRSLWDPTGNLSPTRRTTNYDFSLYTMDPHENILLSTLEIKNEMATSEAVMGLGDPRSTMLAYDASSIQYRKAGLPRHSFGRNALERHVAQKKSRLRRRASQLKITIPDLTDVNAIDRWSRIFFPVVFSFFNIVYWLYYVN
Sequence (P18507 40-475 limits assumed): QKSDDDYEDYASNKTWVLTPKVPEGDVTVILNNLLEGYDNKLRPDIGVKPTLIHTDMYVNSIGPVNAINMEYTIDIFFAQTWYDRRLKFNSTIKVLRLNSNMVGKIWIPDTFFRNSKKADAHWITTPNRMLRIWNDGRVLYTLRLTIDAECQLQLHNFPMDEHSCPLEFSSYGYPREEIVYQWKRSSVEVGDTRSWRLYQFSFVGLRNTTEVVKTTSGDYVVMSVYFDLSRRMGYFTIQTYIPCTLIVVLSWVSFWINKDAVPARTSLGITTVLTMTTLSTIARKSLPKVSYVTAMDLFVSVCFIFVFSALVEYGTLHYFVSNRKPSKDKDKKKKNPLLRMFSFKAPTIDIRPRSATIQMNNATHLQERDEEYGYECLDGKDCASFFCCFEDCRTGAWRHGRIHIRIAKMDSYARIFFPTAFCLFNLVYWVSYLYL
Test: α1β2γ2 SyncroPatch automated patch clamp assay
Settings: HEK cells, potentiation of submaximal GABA current, clamped at −120 mV
pEC50: −log10 of the molar value.
Recorded metric: pEC50

# get_value(readout='pEC50', item= COC[C@@]1(O)CC[C@H]2[C@H](CC[C@@H]3[C@@H]2CC[C@]2(C)[C@@H]([C@H](C)Cc4ccc(C#N)nc4)CC[C@@H]32)C1 [Example 405] )
≤ 6.00

Same question, CCC[C@@]1(O)CC[C@H]2[C@H](CC[C@@H]3[C@@H]2CC[C@]2(C)[C@@H]([C@@H](C)Cn4nnc(C)n4)[C@@H](O)C[C@@H]32)C1 [Example 365] this time
≤ 6.00

Same question, CCOC[C@@]1(O)CC[C@H]2[C@H](CC[C@@H]3[C@@H]2CC[C@]2(C)[C@@H]([C@@H](C)Cc4cccc(C#N)n4)CC[C@@H]32)C1 [Example 413] this time
> 6.70

***
# get_value(readout='pEC50', item= CCOC[C@@]1(O)CC[C@H]2[C@H](CC[C@@H]3[C@@H]2CC[C@]2(C)[C@@H]([C@@H](C)NC(=O)c4ccc(F)cc4F)CC[C@@H]32)C1 [Example 132] )
≤ 6.00

Same question, C[C@@H](Cc1cncc(C#N)c1)[C@H]1CC[C@H]2[C@@H]3CC[C@@H]4C[C@](C)(O)CC[C@@H]4[C@H]3CC[C@]12C [Example 407] this time
> 6.70

---

Biological target: [35S]-TBPS binding, rat brain cortical membranes
Test: Steroid inhibition of [35S]-TBPS binding
Conditions: 3 nM [35S]-TBPS, in the presence of 5 mM GABA
Here, each record is paired with measured IC50 data.

# get_value(readout='IC50', item= C[C@@H](Cn1cc(C#N)cn1)[C@H]1CC[C@H]2[C@@H]3CC[C@@H]4C[C@](C)(O)CC[C@@H]4[C@H]3CC[C@]12C [Example 51] )
< 100 nM

Same question, CC[C@@H](NCc1ccccc1)[C@H]1CC[C@H]2[C@@H]3CC[C@@H]4C[C@@](O)(COC)CC[C@@H]4[C@H]3CC[C@]12C [Example 214] this time
1000 to 10000 nM

Same question, COC[C@@]1(O)CC[C@H]2[C@H](CC[C@@H]3[C@@H]2CC[C@]2(C)[C@@H]([C@H](C)Cc4ccc(C#N)nc4)CC[C@@H]32)C1 [Example 405] this time
< 100 nM

Same question, COC[C@@]1(O)CC[C@H]2[C@H](CC[C@@H]3[C@@H]2CC[C@]2(C)[C@@H]([C@H](C)Cc4ccc(C(F)(F)F)nc4)CC[C@@H]32)C1 [Example 421] this time
100 to 1000 nM

Same question, COC[C@@]1(O)CC[C@H]2[C@@H](CC[C@@H]3[C@@H]2CC[C@]2(C)[C@@H]([C@@H](C)Cn4nnnc4C)CC[C@@H]32)C1 [Example 55] this time
< 100 nM

---

Target: [35S]-TBPS binding, rat brain cortical membranes
Assay: Steroid inhibition of [35S]-TBPS binding
Details: 3 nM [35S]-TBPS, in the presence of 5 mM GABA
Recorded metric: IC50

# get_value(readout='IC50', item= CCOC[C@@]1(O)CC[C@H]2[C@H](CC[C@@H]3[C@@H]2CC[C@]2(C)[C@@H]([C@@H](C)Cn4nccn4)CC[C@@H]32)C1 [Example 266] )
100 to 1000 nM

Same question, CC[C@]12CC[C@H]3[C@@H](CC[C@@H]4C[C@](C)(O)CC[C@@H]43)[C@@H]1CC[C@@H]2[C@@H](C)Cn1cc(C#N)cn1 [Example 317] this time
< 100 nM

Same question, COC[C@@]1(O)CC[C@H]2[C@H](CC[C@@H]3[C@@H]2CC[C@]2(C)[C@@H]([C@H](C)Nc4cccc(C#N)c4)CC[C@@H]32)C1 [Example 255] this time
1000 to 10000 nM

Same question, CCC[C@@]1(O)CC[C@@]2(C)[C@H](CC[C@H]3[C@@H]4CC[C@H](C(C)Cn5cc(C#N)cn5)[C@@]4(C)CC(=O)[C@@H]32)C1 (stereo in doubt) [Example 340] this time
< 100 nM

// below: IC50 requested for another compound
# get_value(readout='IC50', item= CCOC[C@@]1(O)CC[C@H]2[C@H](CC[C@@H]3[C@@H]2CC[C@]2(C)[C@@H]([C@@H](C)Nc4ccc(C#N)cc4C)CC[C@@H]32)C1 [Example 260] )
< 100 nM

---

Here, each record is paired with measured EC50 data.
Target: human GABAA receptors composed of the α4β3δ subunits (Homo sapiens (Human), UniProt O14764+P28472+P48169)
Sequence (P48169 36-554 limits assumed): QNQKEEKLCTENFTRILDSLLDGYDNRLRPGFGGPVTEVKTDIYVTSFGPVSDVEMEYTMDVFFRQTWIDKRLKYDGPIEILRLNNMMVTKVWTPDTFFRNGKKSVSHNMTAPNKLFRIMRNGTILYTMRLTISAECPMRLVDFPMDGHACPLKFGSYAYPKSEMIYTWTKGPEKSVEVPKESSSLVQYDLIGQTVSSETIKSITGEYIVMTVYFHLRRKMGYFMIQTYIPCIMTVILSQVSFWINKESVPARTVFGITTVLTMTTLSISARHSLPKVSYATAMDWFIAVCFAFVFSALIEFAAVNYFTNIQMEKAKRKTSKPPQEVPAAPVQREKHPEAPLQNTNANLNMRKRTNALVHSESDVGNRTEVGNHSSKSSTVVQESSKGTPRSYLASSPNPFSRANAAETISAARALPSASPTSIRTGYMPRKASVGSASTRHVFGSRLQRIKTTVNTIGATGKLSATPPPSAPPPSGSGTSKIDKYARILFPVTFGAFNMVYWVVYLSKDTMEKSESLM
Sequence (P28472 26-473 limits assumed): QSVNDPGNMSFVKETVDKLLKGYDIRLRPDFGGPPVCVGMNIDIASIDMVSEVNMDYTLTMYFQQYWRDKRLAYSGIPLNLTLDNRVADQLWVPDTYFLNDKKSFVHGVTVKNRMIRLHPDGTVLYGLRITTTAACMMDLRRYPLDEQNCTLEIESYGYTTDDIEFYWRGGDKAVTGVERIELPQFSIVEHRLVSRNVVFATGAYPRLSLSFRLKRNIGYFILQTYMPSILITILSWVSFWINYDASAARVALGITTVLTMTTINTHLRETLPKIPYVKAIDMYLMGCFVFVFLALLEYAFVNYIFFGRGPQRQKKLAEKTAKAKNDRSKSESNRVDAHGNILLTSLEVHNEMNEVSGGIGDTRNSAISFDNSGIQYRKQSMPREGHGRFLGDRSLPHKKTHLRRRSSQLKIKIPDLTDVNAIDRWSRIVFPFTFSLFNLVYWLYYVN
Sequence (O14764 17-452 limits assumed): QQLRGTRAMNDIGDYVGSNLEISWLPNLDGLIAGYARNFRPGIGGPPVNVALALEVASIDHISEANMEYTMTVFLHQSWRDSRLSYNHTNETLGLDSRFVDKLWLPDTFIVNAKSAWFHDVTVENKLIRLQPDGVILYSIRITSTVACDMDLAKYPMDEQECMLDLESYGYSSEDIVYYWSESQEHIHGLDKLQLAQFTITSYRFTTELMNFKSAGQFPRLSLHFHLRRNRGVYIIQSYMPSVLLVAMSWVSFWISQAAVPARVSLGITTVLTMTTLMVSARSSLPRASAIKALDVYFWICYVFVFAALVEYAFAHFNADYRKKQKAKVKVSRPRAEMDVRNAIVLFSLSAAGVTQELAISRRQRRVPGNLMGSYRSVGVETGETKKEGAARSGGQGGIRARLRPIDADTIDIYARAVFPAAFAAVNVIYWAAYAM
Experiment: α4β3δ SyncroPatch automated patch clamp assay
Settings: HEK cells, potentiation of submaximal GABA current, clamped at −120 mV

Some compounds with recorded EC50:
# get_value(readout='EC50', item= C[C@@H](Cc1nc(C(F)(F)F)cs1)[C@H]1CC[C@H]2[C@@H]3CC[C@@H]4C[C@](C)(O)CC[C@]4(C)[C@H]3CC[C@]12C [Example 453] )
< 200 nM

Same question, Cc1cnc(C[C@H](C)[C@H]2CC[C@H]3[C@@H]4CC[C@@H]5C[C@](C)(O)CC[C@@H]5[C@H]4CC[C@]23C)cn1 [Example 439] this time
< 200 nM

Same question, COC[C@@]1(O)CC[C@H]2[C@@H](CC[C@@H]3[C@@H]2CC[C@]2(C)[C@@H]([C@@H](C)Cn4nnc(C)n4)CC[C@@H]32)C1 [Example 53] this time
≥ 1000 nM

Same question, C[C@H](Cc1cncc(C#N)c1)[C@H]1CC[C@H]2[C@@H]3CC[C@@H]4C[C@](C)(O)CC[C@@H]4[C@H]3CC[C@]12C [Example 406] this time
< 200 nM

// below: EC50 requested for another compound
# get_value(readout='EC50', item= CCC[C@@]1(O)CC[C@H]2[C@H](CC[C@@H]3[C@@H]2CC[C@]2(C)[C@@H]([C@@H](C)Cc4ccc(C#N)nc4)CC[C@@H]32)C1 [Example 401] )
≥ 1000 nM

---

Biological target: human GABAA receptors composed of the α4β3δ subunits (Homo sapiens (Human), UniProt O14764+P28472+P48169)
Test: α4β3δ SyncroPatch automated patch clamp assay
Settings: HEK cells, potentiation of submaximal GABA current, clamped at −120 mV
Recorded metric: EC50

Some molecules with recorded EC50:
# get_value(readout='EC50', item= CC(C)C[C@@]1(O)CC[C@H]2[C@H](CC[C@@H]3[C@@H]2CC[C@]2(C)[C@@H]([C@@H](C)Cn4cc(C#N)cn4)CC[C@@H]32)C1 [Example 299] )
< 200 nM

Same question, CCCC[C@@]1(O)CC[C@H]2[C@H](CC[C@@H]3[C@@H]2CC[C@]2(C)[C@@H]([C@@H](C)Cn4cc(C#N)cn4)CC[C@@H]32)C1 [Example 311] this time
200 to 1000 nM

Same question, Cc1cnc(C[C@@H](C)[C@H]2CC[C@H]3[C@@H]4CC[C@@H]5C[C@](C)(O)CC[C@@H]5[C@H]4CC[C@]23C)nc1 [Example 438] this time
≥ 1000 nM

Same question, CC[C@@]1(O)CC[C@H]2[C@H](CC[C@@H]3[C@@H]2CC[C@]2(C)[C@@H]([C@H](C)Cn4cc(C#N)cn4)CC[C@@H]32)C1 [Example 276] this time
< 200 nM

Same question, CCOC[C@@]1(O)CC[C@H]2[C@H](CC[C@@H]3[C@@H]2CC[C@]2(C)[C@@H]([C@H](Cn4nnc(C)n4)C(F)(F)F)CC[C@@H]32)C1 [Example 358] this time
≥ 1000 nM

// below: EC50 requested for another molecule
# get_value(readout='EC50', item= C[C@@H](Cn1cc(C#N)cn1)[C@H]1CC[C@H]2[C@@H]3CC[C@@H]4C[C@@](O)(C5CC5)CC[C@@H]4[C@H]3CC[C@]12C [Example 341] )
< 200 nM

---

Molecular target: [35S]-TBPS binding, rat brain cortical membranes
Assay: Steroid inhibition of [35S]-TBPS binding
Details: 3 nM [35S]-TBPS, in the presence of 5 mM GABA
Here, each record is paired with measured IC50 data.

# get_value(readout='IC50', item= `C[C@@]1(O)CC[C@H]2[C@H](CC[C@@H]3[C@@H]2CC[C@]2(C)[C@@H](CNC(=O)c4ccccc4)CC[C@@H]32)C1` )
< 100 nM

// below: IC50 requested for another compound
# get_value(readout='IC50', item= `CCOC[C@@]1(O)CC[C@H]2[C@H](CC[C@@H]3[C@@H]2CC[C@]2(C)[C@@H]([C@@H](C)Nc4cccc(N5CCCC5=O)n4)CC[C@@H]32)C1` )
< 100 nM
